Tested on: HeLa cells
assay: in vitro
test-parameters: HeLa, 24 h, 10 µM (lower toxic concentration) of the compound + 20 µM ZEN
metric-name: Combined cytotoxic effect in Figure 3B

> print(dat)
                                   compound  subject.of.test                             metric.name  result
1  C[C@H]1CCC[C@H](O)CCC/C=C/c2cc(O)cc(O)c2C(=O)O1 [α-ZEL, α-zearalenol]       HeLa cells  Combined cytotoxic effect in Figure 3B     Syn
2  C[C@H]1CCC[C@@H](O)CCCCCc2cc(O)cc(O)c2C(=O)O1 [β-ZAL, β-zearalanol]       HeLa cells  Combined cytotoxic effect in Figure 3B     Syn
3  C[C@H]1CCC[C@@H](O)CCC/C=C/c2cc(O)cc(O)c2C(=O)O1 [β-ZEL, β-zearalenol]       HeLa cells  Combined cytotoxic effect in Figure 3B     Syn
4  C[C@H]1CCC[C@H](O)CCCCCc2cc(O)cc(O)c2C(=O)O1 [α-ZAL, α-zearalanol]       HeLa cells  Combined cytotoxic effect in Figure 3B     Syn

====

subject-of-test: hERα (Saccharomyces cerevisiae BLYES strain) (Homo sapiens, UniProt P03372)
Construct: expressed in transfected cells; host or cells: Saccharomyces cerevisiae BLYES strain (hERα gene integrated in the chromosome)
Sequence (P03372 whole entry): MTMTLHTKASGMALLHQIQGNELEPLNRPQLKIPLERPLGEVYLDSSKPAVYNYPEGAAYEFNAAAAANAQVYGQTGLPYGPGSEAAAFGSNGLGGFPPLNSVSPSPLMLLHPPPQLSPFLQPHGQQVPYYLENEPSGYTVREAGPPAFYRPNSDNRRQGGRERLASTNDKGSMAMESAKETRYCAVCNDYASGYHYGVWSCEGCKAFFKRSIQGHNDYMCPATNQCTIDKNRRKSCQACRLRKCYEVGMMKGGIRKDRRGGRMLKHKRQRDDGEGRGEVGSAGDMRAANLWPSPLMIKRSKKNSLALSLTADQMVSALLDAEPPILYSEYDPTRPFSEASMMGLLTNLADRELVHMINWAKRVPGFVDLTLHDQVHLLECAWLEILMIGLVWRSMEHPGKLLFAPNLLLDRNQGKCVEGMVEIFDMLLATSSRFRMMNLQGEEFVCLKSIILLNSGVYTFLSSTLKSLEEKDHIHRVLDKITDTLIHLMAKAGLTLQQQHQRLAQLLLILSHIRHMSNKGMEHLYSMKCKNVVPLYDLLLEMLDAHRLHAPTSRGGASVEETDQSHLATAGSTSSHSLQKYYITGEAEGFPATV
assay: cell-based
Format: cell-based
test-parameters: BLYES, + 6.28 × 10^−2 µM ZEN; higher estrogenic concentration of the compound (as E22)
metric-name: Combined Estrogenic Effect (grade symbol)

> print(dat)
                              record.smiles                   result
1  C[C@H]1CCC[C@@H](O)CCC/C=C/c2cc(O)cc(O)c2C(=O)O1  ± (0.80 < CI < 1.20: ±)
2  C[C@H]1CCC[C@H](O)CCCCCc2cc(O)cc(O)c2C(=O)O1  ± (0.80 < CI < 1.20: ±)

====

Kindly supply the reported pIC50 values for the records listed here.
System: HeLa cells
assay: cells
test-parameters: Homo sapiens, HeLa, 24 h, read-out: Dm (IC50), viability of HeLa cells (ATP/well)
Just the number, please; pIC50 means minus log10 of the concentration in mol/L.

pIC50 recorded for this molecule, C[C@H]1CCC[C@H](O)CCCCCc2cc(O)cc(O)c2C(=O)O1 , is 4.20

pIC50 recorded for this molecule, C[C@H]1CCC[C@@H](O)CCC/C=C/c2cc(O)cc(O)c2C(=O)O1 , is 4.40

pIC50 recorded for this molecule, C[C@H]1CCC[C@H](O)CCC/C=C/c2cc(O)cc(O)c2C(=O)O1 , is 4.35

pIC50 recorded for this molecule, C[C@H]1CCCC(=O)CCCCCc2cc(O)cc(O)c2C(=O)O1 , is 4.21

pIC50 recorded for this molecule, C[C@H]1CCC[C@@H](O)CCCCCc2cc(O)cc(O)c2C(=O)O1 , is 4.19

pIC50 recorded for this molecule, Cc1cc(O)cc2oc(=O)c3c(O)cc(O)cc3c12 , is 4.47

pIC50 recorded for this molecule, C[C@H]1CCCC(=O)CCC/C=C/c2cc(O)cc(O)c2C(=O)O1 , is 4.25

====

subject-of-test: hERα (Saccharomyces cerevisiae BLYES strain) (Homo sapiens, UniProt P03372)
Construct: expressed in transfected cells; host or cells: Saccharomyces cerevisiae BLYES strain (hERα gene integrated in the chromosome)
assay: cell-based
Type: cell-based
test-parameters: BLYES, + 62.8 ×10^-3 μM ZEN; lower estrogenic concentration of the compound (as E19)
metric-name: Combined estrogenic effect in Figure 5B

> print(dat)
                                   compound     result
1  C[C@H]1CCC[C@H](O)CCC/C=C/c2cc(O)cc(O)c2C(=O)O1 [α-ZEL, α-zearalenol]  synergism
2  C[C@H]1CCC[C@@H](O)CCC/C=C/c2cc(O)cc(O)c2C(=O)O1 [β-ZEL, β-zearalenol]  synergism
3  C[C@H]1CCCC(=O)CCCCCc2cc(O)cc(O)c2C(=O)O1 [ZAN, zearalanone]  synergism

====

Kindly supply the reported cytotoxicity at 30 µM values for the records listed here.
assay: in vitro
test-parameters: human
Please give a number only; it is taken to be in %.

cytotoxicity at 30 µM recorded for this compound, C[C@H]1CCC[C@H](O)CCC/C=C/c2cc(O)cc(O)c2C(=O)O1 , is 38.4

cytotoxicity at 30 µM recorded for this compound, C[C@H]1CCCC(=O)CCCCCc2cc(O)cc(O)c2C(=O)O1 , is 34.8

cytotoxicity at 30 µM recorded for this compound, C[C@H]1CCC[C@@H](O)CCCCCc2cc(O)cc(O)c2C(=O)O1 , is 28

The origin of these recorded values is paper PMC8230625.
